# procedure_summary: Cmax in mouse at 10 mg/kg
# Type: ADME, organism-based
# Parameters: dose 10 mg/kg
# experimental_conditions: in vivo
measured_quantity: Cmax (ng/mL)

INSERT INTO results (smiles, measured_value) VALUES
  ('Cc1nn(-c2nc(-c3ccc(Cl)c(Cl)c3)c(SC(C)C)s2)c(C(=O)O)c1-c1cc(Cl)cc(Cl)c1', 15700);

----------
# procedure_summary: MRT in mouse at 50 mg/kg, po
# Assay type: ADME, organism-based
# experimental_conditions: in vivo
measured_quantity: MRT (h)

INSERT INTO measurements (smiles, measured_value) VALUES
  ('Cc1nn(-c2nc(-c3ccc(Cl)c(Cl)c3)c(SC(C)C)s2)c(C(=O)O)c1-c1cc(Cl)cc(Cl)c1', 9.3);

----------
# procedure_summary: Cmax in J:Nu mouse plasma at 10 mg/kg, po qd for 7 days
# Format: ADME, organism-based
# Parameters: dose 10 mg/kg, route oral
measured_quantity: Cmax (ng/mL)

INSERT INTO results (smiles, measurement_unit, measured_value) VALUES
  ('Cc1nn(-c2nc(-c3ccc(Cl)c(Cl)c3)c(SC(C)C)s2)c(C(=O)O)c1-c1cc(Cl)cc(Cl)c1', 'ng/mL', 29000);

----------
# procedure_summary: Plasma concentration (7 hrs) in J:Nu mouse at 60 mg/kg, po qd for 7 days measured on day 5
# Assay type: ADME, organism-based
measured_quantity: concentration at 7 h (µg/mL)

INSERT INTO measurements (smiles, measured_value) VALUES
  ('Cc1nn(-c2nc(-c3ccc(Cl)c(Cl)c3)c(SC(C)C)s2)c(C(=O)O)c1-c1cc(Cl)cc(Cl)c1', 79.8);

----------
# procedure_summary: AUC (0 to infinity) in mouse at 10 mg/kg
# Format: ADME, organism-based
# Design: dose 10 mg/kg, time infinity
# experimental_conditions: in vivo
measured_quantity: AUC(0-inf) (µg·h/mL)

INSERT INTO results (smiles, measured_value) VALUES
  ('Cc1nn(-c2nc(-c3ccc(Cl)c(Cl)c3)c(SC(C)C)s2)c(C(=O)O)c1-c1cc(Cl)cc(Cl)c1', 257);

----------
# procedure_summary: AUC (0 to infinity) in mouse at 100 mg/kg
# Format: ADME, organism-based
# Set-up: dose 100 mg/kg, time infinity
# experimental_conditions: in vivo
measured_quantity: AUC(0-inf) (µg·h/mL)

INSERT INTO measurements (smiles, measured_quantity, measured_value) VALUES
  ('Cc1nn(-c2nc(-c3ccc(Cl)c(Cl)c3)c(SC(C)C)s2)c(C(=O)O)c1-c1cc(Cl)cc(Cl)c1', 'AUC(0-inf)', 2120);

----------
# procedure_summary: Initial plasma concentration in iv dosed mouse
# Format: ADME, organism-based
measured_quantity: C0 (ng/mL)

INSERT INTO assay_data (smiles, measured_quantity, measured_value) VALUES
  ('Cc1nn(-c2nc(-c3ccc(Cl)c(Cl)c3)c(SC(C)C)s2)c(C(=O)O)c1-c1cc(Cl)cc(Cl)c1', 'C0', 3190);

----------
# procedure_summary: Plasma concentration (7 hrs) in J:Nu mouse at 30 mg/kg, po qd for 7 days measured on day 1
# Assay type: ADME, organism-based
measured_quantity: concentration at 7 h (µg/mL)

INSERT INTO assay_data (smiles, measured_value) VALUES
  ('Cc1nn(-c2nc(-c3ccc(Cl)c(Cl)c3)c(SC(C)C)s2)c(C(=O)O)c1-c1cc(Cl)cc(Cl)c1', 63.6);
